IC50 for assorted molecules
- Tested on: A549
- assay_name: cells
- Type: cell-based, human
- condition_context: Homo sapiens, A549, 72 h, read-out: A549 IC50 (nM), 72 h exposure, SRB, mean ± SD
Reply numerically in nM, unit not repeated.

Illustrative cases are given below, each with its answer.
Record CNc1ccc2c(cc1=O)[C@@H](n1cc(C(=O)O)nn1)CCc1cc(OC)c(OC)c(OC)c1-2 , field IC50: 1300

Record CNc1ccc2c(cc1=O)[C@@H](n1cc(CNC(=O)c3ccccc3Cl)nn1)CCc1cc(OC)c(OC)c(OC)c1-2 , field IC50: 5.7

Continue with the next molecule.
Record CNc1ccc2c(cc1=O)[C@@H](N=[N+]=[N-])CCc1cc(OC)c(OC)c(OC)c1-2 , field IC50: 1.4

====

- Test system: A549, MCF-7, and LoVo cells
- assay_name: Antiproliferative activity, values quoted jointly for three tumor lines
- Type: cell-based, human
- condition_context: Homo sapiens; summary of Table 1; read-out: IC50 against A549, MCF-7, and LoVo cells (span over the three lines)
IC50 for assorted molecules

Illustrative cases are given below, each with its answer.
Tested system A549, MCF-7, and LoVo cells; IC50 recorded for CNc1ccc2c(cc1=O)[C@@H](n1cc(CNC(=O)OCC(C)C)nn1)CCc1cc(OC)c(OC)c(OC)c1-2 [Compound 40] was 1.2 to 1.7 nM

Tested system A549, MCF-7, and LoVo cells; IC50 recorded for CCCCc1cn([C@H]2CCc3cc(OC)c(OC)c(OC)c3-c3ccc(NC)c(=O)cc32)nn1 [Compound 7] was 3.1 to 6.4 nM

Tested system A549, MCF-7, and LoVo cells; IC50 recorded for CCOC(=O)c1cn([C@H]2CCc3cc(OC)c(OC)c(OC)c3-c3ccc(NC)c(=O)cc32)nn1 [Compound 19] was 10 to 25 nM

Tested system A549, MCF-7, and LoVo cells; IC50 recorded for CNc1ccc2c(cc1=O)[C@@H](n1cc(CNC(=O)CCCCCl)nn1)CCc1cc(OC)c(OC)c(OC)c1-2 [Compound 32] was 2.7 to 6.3 nM

Tested system A549, MCF-7, and LoVo cells; IC50 recorded for CNc1ccc2c(cc1=O)[C@@H](n1cc(C(=O)OCc3ccc(F)cc3)nn1)CCc1cc(OC)c(OC)c(OC)c1-2 [Compound 21] was 10 to 25 nM

Continuing:
Tested system A549, MCF-7, and LoVo cells; IC50 recorded for CNc1ccc2c(cc1=O)[C@@H](n1cc(CN)nn1)CCc1cc(OC)c(OC)c(OC)c1-2 [Compound 8] was 30 to 140 nM

Tested system A549, MCF-7, and LoVo cells; IC50 recorded for CCOC(=O)c1nnn([C@H]2CCc3cc(OC)c(OC)c(OC)c3-c3ccc(NC)c(=O)cc32)c1C(=O)OCC [Compound 22] was 70 to 100 nM

Tested system A549, MCF-7, and LoVo cells; IC50 recorded for CNc1ccc2c(cc1=O)[C@@H](n1cc(C(=O)OC)nn1)CCc1cc(OC)c(OC)c(OC)c1-2 [Compound 18] was 10 to 25 nM

Tested system A549, MCF-7, and LoVo cells; IC50 recorded for CNc1ccc2c(cc1=O)[C@@H](n1cc(CNC(=O)C(Cl)Cl)nn1)CCc1cc(OC)c(OC)c(OC)c1-2 [Compound 31] was 2.7 to 6.3 nM

Tested system A549, MCF-7, and LoVo cells; IC50 recorded for CNc1ccc2c(cc1=O)[C@@H](n1cc(CNC(=O)c3ccccc3Cl)nn1)CCc1cc(OC)c(OC)c(OC)c1-2 [Compound 35] was 2.7 to 6.3 nM

Tested system A549, MCF-7, and LoVo cells; IC50 recorded for CNc1ccc2c(cc1=O)[C@@H](n1ccnn1)CCc1cc(OC)c(OC)c(OC)c1-2 [Compound 5] was 3.1 to 6.4 nM
